The reported measurements were obtained from patent US20190375708A1.

assay: In vitro cytotoxicity assay (MTT cell viability) in HepG2 cells; assay type: cell-based, human; settings: human
observable: CC50 at 7 days

Which value of CC50 at 7 days has been reported for Cc1cc(NC(=O)c2c(C)c(C(=O)C(=O)NC3CC4(CC(O)C4)C3)n(C)c2C)ccc1F (stereo not drawn) in the records?
> 30 µM

Try the compound Cc1cc(NC(=O)c2c(C)c(C(=O)C(=O)N[C@H]3CC[C@@](O)(C(F)(F)F)CC3)n(C)c2C)ccc1F
> 30 µM

Try the compound Cc1c(C(=O)Nc2ccnc(Cl)c2)c(C)n(C)c1C(=O)C(=O)N[C@H]1CC[C@@H](O)CC1
> 30 µM

Try the compound Cc1noc([C@@H](C)NC(=O)C(=O)c2c(Cl)c(C(=O)Nc3cnc(F)c(C)c3)c3n2CCCC3)n1
> 30 µM

Try the compound Cc1noc([C@@H](C)NC(=O)C(=O)c2c(Cl)c(C(=O)Nc3ccc(F)c(F)c3)c3n2CCC3)n1
> 30 µM

Try the compound Cc1cc(NC(=O)c2c(C)c(C(=O)C(=O)N[C@H](CO)C(=O)O)n(C)c2C)ccc1F
> 30 µM

Try the compound Cc1cc(NC(=O)c2c(C)c(C(=O)C(=O)N[C@@H](C)C(F)(F)F)n3c2CCCC3)cnc1F
5 to 30 µM

====

test: In vitro cytotoxicity assay (MTT cell viability) in HepG2 cells; type: cell-based, human; settings: human
observable: CC50 at 7 days

Record excerpt, results attached:
compound: Cc1noc([C@H](C)NC(=O)C(=O)c2c(Cl)c(C(=O)Nc3ccc(F)c(F)c3)c3n2CCC3)n1 [Example 568]
observable: CC50 at 7 days
result: 5 to 30 µM

compound: Cc1c(C(=O)Nc2cc(F)c(F)c(F)c2)c(Cl)c(C(=O)C(=O)N[C@@H]2CCC[C@@H]2O)n1C [Example 374]
observable: CC50 at 7 days
result: 0.5 to 4.99 µM

compound: Cc1cc(NC(=O)c2cc(C(=O)C(=O)NC3(CO)CCC3)n3c2CCCC3)ccc1F [Example 410]
observable: CC50 at 7 days
result: > 30 µM

Which value of CC50 at 7 days has been reported for Cc1cc(NC(=O)c2c(C)c(C(=O)C(=O)NC(C)(C)CO)n3c2CCCC3)ccc1F [Example 436] in the records?
> 30 µM

Try the compound CC(C)(CO)NC(=O)C(=O)c1cc(C(=O)Nc2ccc(F)c(Cl)c2)c2n1CCCC2 [Example 427]
> 30 µM

Try the compound Cc1cc(NC(=O)c2c(C)c(C(=O)C(=O)NC3(C(F)(F)F)CC3)n(C)c2C)cnc1F [Example 234]
> 30 µM

Try the compound Cc1c(C(=O)Nc2ccnc(F)c2)c(C)n(C)c1C(=O)C(=O)NC1(C(F)(F)F)CCOCC1 [Example 271]
> 30 µM

Try the compound Cc1cc(NC(=O)c2c(C)c(C(=O)C(=O)N[C@H](C)C(F)(F)F)n(C)c2C)ccc1F [Example 289]
5 to 30 µM

Try the compound COCC(C)(C)NC(=O)C(=O)c1c(C)c(C(=O)Nc2cnc(F)c(C)c2)c(C)n1CCF [Example 226]
> 30 µM

Try the compound Cc1noc([C@H](NC(=O)C(=O)c2c(Cl)c(C(=O)Nc3ccc(F)c(C)c3)c3n2CCC3)C(C)C)n1 [Example 544]
> 30 µM

Try the compound CC(=O)N1CCC[C@@H](NC(=O)C(=O)c2c(C)c(C(=O)Nc3ccc(F)c(C)c3)c(C)n2C)C1 [Example 639]
> 30 µM

====

experiment: In vitro cytotoxicity assay (MTT cell viability) in HepG2 cells; format: cell-based, human; settings: human
observable: CC50 at 7 days

Record excerpt, results attached:
input_smiles: Cc1cc(NC(=O)c2c(C)c(C(=O)C(=O)NC(C)(C)CO)n(C)c2Cl)ccc1F
CC50 at 7 days: > 30 µM

input_smiles: CCOC(=O)[C@H](CO)NC(=O)C(=O)c1c(C)c(C(=O)Nc2ccc(F)c(C)c2)c(C)n1C
CC50 at 7 days: > 30 µM

input_smiles: Cc1cc(NC(=O)c2c(C)c(C(=O)C(=O)N[C@@H](CO)C(N)=O)n(C)c2C)ccc1F
CC50 at 7 days: 0.5 to 4.99 µM

Which value of CC50 at 7 days has been reported for Cc1c(C(=O)Nc2cc(F)c(F)c(F)c2)c(C)n(C)c1C(=O)C(=O)Nc1cccnc1 in the records?
> 30 µM

====

Parameter: CC50 at 7 days. Scope: all listed entries.
assay: In vitro cytotoxicity assay (MTT cell viability) in HepG2 cells; assay type: cell-based, human; settings: human

Record excerpt, results attached:
input_smiles: Cc1cc(NC(=O)c2c(C)c(C(=O)C(=O)NC3(C(=O)N[C@H](C)C(F)(F)F)CCOCC3)n(C)c2C)ccc1F
result: > 30 µM

input_smiles: Cc1cc(NC(=O)c2c(C)c(C(=O)C(=O)N[C@H](C(=O)O)C(C)C)n(C)c2C)ccc1F
result: 5 to 30 µM

input_smiles: COC(=O)[C@@H](NC(=O)C(=O)c1c(C)c(C(=O)Nc2ccc(F)c(C)c2)c(C)n1C)C1CCCCC1
result: 0.5 to 4.99 µM

Then there is this molecule:
Which value of CC50 at 7 days has been reported for CC(=O)N1CCC[C@H](NC(=O)C(=O)c2c(C)c(C(=O)Nc3ccc(F)c(C)c3)c(C)n2C)C1 in the records?
> 30 µM

====

Parameter: CC50 at 7 days. Scope: all listed entries.
experiment: In vitro cytotoxicity assay (MTT cell viability) in HepG2 cells; format: cell-based, human; conditions: human

compound: Cc1cc(NC(=O)c2c(C)c(C(=O)C(=O)N[C@@H]3C[C@H](O)[C@@H](O)[C@H]3O)n(C)c2C)ccc1F
observable: CC50 at 7 days
result: > 30 µM
--
compound: CC(C)(CO)CNC(=O)C(=O)c1c(Cl)c(C(=O)Nc2ccnc(F)c2)c2n1CCCC2
observable: CC50 at 7 days
result: > 30 µM
--
compound: Cc1c(C(=O)Nc2cc(F)c(F)c(F)c2)c(Cl)c(C(=O)C(=O)NC(C)(C)CO)n1C
observable: CC50 at 7 days
result: 0.5 to 4.99 µM
--
compound: Cc1cc(NC(=O)c2c(C)c(C(=O)C(=O)N[C@H]3COC[C@@H]3O)n3c2CCCC3)ccc1F
observable: CC50 at 7 days
result: > 30 µM
--
compound: Cc1c(C(=O)Nc2ccc(F)c(F)c2)c(C)n(C)c1C(=O)C(=O)Nc1cccnc1
observable: CC50 at 7 days
result: > 30 µM
--
compound: Cc1cc(NC(=O)c2c(C)c(C(=O)C(=O)NC3(CO)CC(F)(F)C3)n(C)c2C)ccc1F
observable: CC50 at 7 days
result: > 30 µM
--
compound: Cc1cc(NC(=O)c2c(C)c(C(=O)C(=O)N[C@@H](C(N)=O)C(C)(C)C)n(C)c2C)ccc1F
observable: CC50 at 7 days
result: 0.5 to 4.99 µM
--
compound: Cc1cc(NC(=O)c2c(C)c(C(=O)C(=O)NCc3nc(C(F)(F)F)no3)n(C)c2C)ccc1F
observable: CC50 at 7 days
result: 5 to 30 µM

Which value of CC50 at 7 days has been reported for Cc1cc(NC(=O)c2c(C)c(C(=O)C(=O)N[C@H]3CC[C@@H](O)CC3)n(C)c2C)cnc1F in the records?
> 30 µM

====

test: In vitro cytotoxicity assay (MTT cell viability) in HepG2 cells; type: cell-based, human; conditions: human
Parameter: CC50 at 7 days. Scope: all listed entries.

input_smiles: Cc1cc(NC(=O)c2c(C)c(C(=O)C(=O)N[C@H](C)C(F)(F)F)n(C)c2C)cnc1F
observable: CC50 at 7 days
result: > 30 µM
--
input_smiles: Cc1c(C(=O)NC2CCCC2)c2n(c1C(=O)C(=O)NC(C)(C)CO)CCCC2
observable: CC50 at 7 days
result: > 30 µM
--
input_smiles: Cc1cc(NC(=O)c2c(C)c(C(=O)C(=O)NC34CC5CC(CC(O)(C5)C3)C4)n(C)c2C)ccc1F
observable: CC50 at 7 days
result: > 30 µM
--
input_smiles: Cc1cc(NC(=O)c2c(C)c(C(=O)C(=O)NC3(C(F)(F)F)CCOCC3)n(C)c2C)cnc1F
observable: CC50 at 7 days
result: > 30 µM
--
input_smiles: Cc1c(C(=O)Nc2ccc(F)c(F)c2)c(Cl)c(C(=O)C(=O)NC2(C(F)(F)F)CC2)n1C
observable: CC50 at 7 days
result: 5 to 30 µM

Which value of CC50 at 7 days has been reported for CNC(=O)[C@@H](NC(=O)C(=O)c1c(C)c(C(=O)Nc2ccc(F)c(C)c2)c(C)n1C)C1CCC1 in the records?
5 to 30 µM

Try the compound Cc1cc(NC(=O)c2cc(C(=O)C(=O)NC(C)(C)CO)n3c2CCCC3)ccc1F
> 30 µM

Try the compound Cc1cc(NC(=O)c2cc(C(=O)C(=O)N3CCc4nc(N)sc4C3)n3c2CCCC3)ccc1F
> 30 µM

Try the compound Cc1cc(NC(=O)c2c(C)c(C(=O)C(=O)N[C@H]3CCC[C@H]3O)n(C)c2C)ccc1F
> 30 µM

Try the compound Cc1cc(NC(=O)c2c(C)c(C(=O)C(=O)N[C@@H](C(=O)NCC(C)(C)O)C(C)(C)C)n(C)c2C)ccc1F
> 30 µM

Try the compound Cc1cc(NC(=O)c2c(C)c(C(=O)C(=O)NCC(C)(C)CO)n3c2CCCC3)ccc1F
5 to 30 µM

Try the compound Cc1c(C(=O)Nc2ccc(F)c(F)c2)c2n(c1C(=O)C(=O)NCc1cnc(N)s1)CCCC2
5 to 30 µM

Try the compound Cc1cc(NC(=O)c2c(C)c(C(=O)C(=O)Nc3cccnc3)n(C)c2C)cnc1F
> 30 µM

Try the compound Cc1cc(NC(=O)c2c(C)c(C(=O)C(=O)NCC(=O)N3CCOCC3)n(C)c2C)ccc1F
> 30 µM

Try the compound CC(=O)N[C@H]1C[C@@H](NC(=O)C(=O)c2c(C)c(C(=O)Nc3ccc(F)c(C)c3)c(C)n2C)C1
> 30 µM
